System Under Test: Cysteinyl leukotriene receptor 1 (Cavia porcellus)
Test Protocol: Inhibition constant for displacement of [3H]LTD4 on guinea pig lung parenchymal membranes.
Range-based classes on measured Ki: bottom end: < 0.3 nM; midrange: ≥ 0.3 nM and < 7 nM; top end: ≥ 7 nM

For COc1cc(C(=O)NS(=O)(=O)c2ccccc2Cl)ccc1Cc1nn(C)c2ccc(NC(=O)NC3CCC3)cc12 , which Ki bin applies?
bottom end

For COc1cc(C(=O)NS(=O)(=O)c2ccccc2)ccc1Cc1c[nH]c2ccc(NC(=O)OC3CCCC3)cc12 , which Ki bin applies?
midrange

For COc1cc(C(=O)O)ccc1Cc1cn(Cc2cccc(C#N)c2)c2ccc(NC(=O)CC3CCCC3)cc12 , which Ki bin applies?
top end

For COc1cc(C(=O)O)ccc1Cc1cn(CC2CC2)c2ccc(NC(=O)OC3CCCC3)cc12 , which Ki bin applies?
top end

For COc1cc(C(=O)NS(C)(=O)=O)ccc1Cc1cn(Cc2cccc(C#N)c2)c2ccc(NC(=O)CC3CCCC3)cc12 , which Ki bin applies?
midrange

For COc1cc(C(=O)NS(=O)(=O)c2ccccc2Cl)ccc1Cc1nn(C)c2ccc(NC(=O)CC3CCCCC3)cc12 , which Ki bin applies?
bottom end

For COc1cc(C(=O)NS(=O)(=O)c2ccccc2)ccc1Cc1cn(C)c2ccc(NC(=O)OC3CCCC3)cc12 , which Ki bin applies?
midrange

For COc1cc(C(=O)NS(=O)(=O)c2ccccc2Br)ccc1Cc1cn(C)c2ccc(NC(=O)CC3CCCC3)cc12 , which Ki bin applies?
midrange

For COCCn1cc(Cc2ccc(C(=O)NS(=O)(=O)c3ccccc3)cc2OC)c2cc(NC(=O)OC3CCCC3)ccc21 , which Ki bin applies?
bottom end

For COc1cc(C(=O)O)ccc1Cc1cn(C2CCCC2)c2ccc(NC(=O)OC3CCCC3)cc12 , which Ki bin applies?
top end

For COc1cc(C(=O)NS(=O)(=O)c2ccccc2)ccc1Cc1cn(C2CCCC2)c2ccc(NC(=O)OC3CCCC3)cc12 , which Ki bin applies?
top end

For COc1cc(C(=O)O)ccc1Cc1cn(Cc2ccccc2)c2ccc(NC(=O)CC3CCCC3)cc12 , which Ki bin applies?
top end

###

System Under Test: Cysteinyl leukotriene receptor 1 (Cavia porcellus)
Test Protocol: Displacement of [3H]LTD4 on guinea pig lung parenchymal membranes
Assay type: tissue-based, Lung parenchyma
pKi: −log10 of the molar value.
Lab note: compare pKi against 7. Equal or greater, write Condition met. Smaller, write Condition not met.

hey, is pKi for this one >= 7? COc1cc(C(=O)O)ccc1Cn1ccc2ccc(NC(=O)CC3CCCC3)cc21
Condition not met

hey, is pKi for this one >= 7? COc1cc(C(=O)NS(=O)(=O)c2ccccc2C)ccc1Cc1c[nH]c2ccc(NC(=O)CC3CCCC3)cc12
Condition met

hey, is pKi for this one >= 7? CCCc1c(OCCCCc2nnn[nH]2)ccc(C(C)=O)c1O
Condition not met

hey, is pKi for this one >= 7? COc1cc(C(=O)NS(=O)(=O)c2ccccc2)ccc1Cc1cn(C)c2ccc(NC(=O)CC3CCCC3)cc12
Condition met

hey, is pKi for this one >= 7? COc1cc(C(=O)O)ccc1Cn1ncc2ccc(NC(=O)CC3CCCC3)cc21
Condition met

hey, is pKi for this one >= 7? COc1cc(C(=O)NS(=O)(=O)c2ccccc2C)ccc1Cc1cn(C)c2ccc(NC(=O)CC3CCCC3)cc12
Condition met

hey, is pKi for this one >= 7? COc1cc(C(=O)NS(=O)(=O)c2ccccc2)ccc1Cc1cn(C)c2ccc(NC(=O)NC3CCCC3)cc12
Condition met

hey, is pKi for this one >= 7? CCCn1cc(Cc2ccc(C(=O)NS(=O)(=O)c3ccccc3)cc2OC)c2cc(NC(=O)NC3CCCC3)ccc21
Condition met

hey, is pKi for this one >= 7? COc1cc(C(=O)NS(=O)(=O)c2ccccc2C)ccc1Cc1cn(C)c2ccc(NC(=O)NC3CCCC3)cc12
Condition met

###

Tested on: Cysteinyl leukotriene receptor 1 (Cavia porcellus)
Test Protocol: Dissociation constant (Kb) against LTD4
Lab note: compare pKB against 9. Equal or greater, write T. Smaller, write F.

hey, is pKB for this one >= 9? COc1cc(C(=O)NS(=O)(=O)c2ccccc2Cl)ccc1Cc1cn(C)c2ccc(NC(=O)CC3CCCC3)cc12
T

hey, is pKB for this one >= 9? COc1cc(C(=O)NS(=O)(=O)c2ccccc2)ccc1Cc1cn(C)c2ccc(NC(=O)CC3CCCC3)cc12
T

hey, is pKB for this one >= 9? COc1cc(C(=O)O)ccc1Cn1ccc2ccc(NC(=O)OC3CCCC3)cc21
F

hey, is pKB for this one >= 9? COc1cc(C(=O)NS(=O)(=O)c2ccccc2)ccc1Cc1cn(C2CCCC2)c2ccc(NC(=O)OC3CCCC3)cc12
F

hey, is pKB for this one >= 9? COc1cc(C(=O)NS(=O)(=O)c2ccccc2)ccc1Cc1c[nH]c2ccc(NC(=O)OC3CCCC3)cc12
T

hey, is pKB for this one >= 9? COc1cc(C(=O)NS(=O)(=O)c2ccccc2Cl)ccc1Cc1cn(C)c2ccc(NC(=O)NC3CCCC3)cc12
T

hey, is pKB for this one >= 9? CCCn1cc(Cc2ccc(C(=O)O)cc2OC)c2cc(NC(=O)OC3CCCC3)ccc21
F

hey, is pKB for this one >= 9? COc1cc(C(=O)NS(=O)(=O)c2ccccc2C)ccc1Cc1cn(C)c2ccc(NC(=O)NC3CCCC3)cc12
T

###

Exercise: state measured pKB for each of the molecules provided.
System: Cysteinyl leukotriene receptor 1 (Cavia porcellus)
Test Protocol: Dissociation constant (Kb) against LTD4

pKB for COc1cc(C(=O)NS(=O)(=O)c2ccccc2)ccc1Cc1cn(C)c2ccc(NC(=O)OC3CCCC3)cc12 is 9.69

pKB for COc1cc(C(=O)O)ccc1Cn1ccc2ccc(NC(=O)CC3CCCC3)cc21 is 7.68

pKB for COc1cc(C(=O)O)ccc1Cc1cn(C)c2ccc(NC(=O)OC3CCCC3)cc12 is 7.84

pKB for COc1cc(C(=O)NS(C)(=O)=O)ccc1Cc1cn(Cc2cccc(C#N)c2)c2ccc(NC(=O)CC3CCCC3)cc12 is 9

pKB for COCCn1cc(Cc2ccc(C(=O)NS(=O)(=O)c3ccccc3)cc2OC)c2cc(NC(=O)OC3CCCC3)ccc21 is 9.39

pKB for COc1cc(C(=O)O)ccc1Cc1cn(C2CCCC2)c2ccc(NC(=O)OC3CCCC3)cc12 is 7.67

pKB for COc1cc(C(=O)NS(=O)(=O)c2ccccc2Br)ccc1Cc1cn(C)c2ccc(NC(=O)CC3CCCC3)cc12 is 10.1

pKB for COc1cc(C(=O)NS(=O)(=O)C(C)C)ccc1Cc1cn(Cc2cccc(C#N)c2)c2ccc(NC(=O)CC3CCCC3)cc12 is 9.28

###

Tested on: Cysteinyl leukotriene receptor 1 (Cavia porcellus)
Test Protocol: Dissociation constant (Kb) against LTD4
Quantity Measured: pKB
Just the number.

pKB for CCCn1cc(Cc2ccc(C(=O)NS(=O)(=O)c3ccccc3)cc2OC)c2cc(NC(=O)NC3CCCC3)ccc21 is 9.2

pKB for CCCn1cc(Cc2ccc(C(=O)NS(=O)(=O)c3ccccc3)cc2OC)c2cc(NC(=O)OC3CCCC3)ccc21 is 8.44

pKB for COc1cc(C(=O)NS(=O)(=O)c2ccccc2C)ccc1Cc1cn(C)c2ccc(NC(=O)CC3CCCC3)cc12 is 9.64

pKB for COc1cc(C(=O)O)ccc1Cc1cn(Cc2cccc(C#N)c2)c2ccc(NC(=O)CC3CCCC3)cc12 is 8.55

pKB for COc1cc(C(=O)NS(=O)(=O)c2ccccc2C)ccc1Cc1c[nH]c2ccc(NC(=O)CC3CCCC3)cc12 is 9.69

pKB for COc1cc(C(=O)O)ccc1Cc1c[nH]c2ccc(NC(=O)OC3CCCC3)cc12 is 7.32

###

System Under Test: Cysteinyl leukotriene receptor 1 (Cavia porcellus)
Test Protocol: Inhibition constant for displacement of [3H]LTD4 on guinea pig lung parenchymal membranes.
The label 1 is reserved for Ki strictly under 0.3 nM; -1 covers values equal to or above it.

State whether 0.3 nM exceeds Ki recorded for CCn1cc(Cc2ccc(C(=O)O)cc2OC)c2cc(NC(=O)CC3CCCC3)ccc21 .
-1

State whether 0.3 nM exceeds Ki recorded for CCCn1cc(Cc2ccc(C(=O)O)cc2OC)c2cc(NC(=O)CC3CCCC3)ccc21 .
-1

State whether 0.3 nM exceeds Ki recorded for COc1cc(C(=O)NS(=O)(=O)c2ccccc2)ccc1Cc1nn(C)c2ccc(NC(=O)OC3CCCC3)cc12 .
1

State whether 0.3 nM exceeds Ki recorded for COc1cc(C(=O)NS(=O)(=O)c2ccccc2Cl)ccc1Cc1cn(C)c2ccc(NC(=O)NC3CCCC3)cc12 .
-1

State whether 0.3 nM exceeds Ki recorded for COc1cc(C(=O)O)ccc1Cc1nn(C)c2ccc(NC(=O)CC3CCCC3)cc12 .
-1

Where do the numbers come from? From ChEMBL document CHEMBL1124803.
